src = the supplement of paper PMC10567573

B1: WDFY1 (parent)
chain: LLIPKEDGVITASEDRTIRVWLKR

Variants of: B1
Experiment: protein stability index of a GFP-peptide fusion (GPS, HEK-293T) (PSI 1-6); higher = more stable;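 note: lentivirally expressed fusions sorted by FACS into six bins by GFP to DsRed ratio, PSI derived from sequencing read proportions per bin multiplied by bin number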
Settings: c terminus: a fixed tail appended
Would you kindly list protein stability index for each of these variants?
Lab note: write the figure by itself, no unit.

Input line: Return value of protein stability index for input "V9I" , no commentary.
Output line: 2.77

Input line: Return value of protein stability index for input "E14D" , no commentary.
Output line: 3.39

Input line: Return value of protein stability index for input "T11Q" , no commentary.
Output line: 1.72

Input line: Return value of protein stability index for input "R19K" , no commentary.
Output line: 2.09

Input line: Return value of protein stability index for input "W21C" , no commentary.
Output line: 3.44

Input line: Return value of protein stability index for input "P4W" , no commentary.
Output line: 2.35

Input line: Return value of protein stability index for input "R16S" , no commentary.
Output line: 1.7

Input line: Return value of protein stability index for input "L22R" , no commentary.
Output line: 3.11

Input line: Return value of protein stability index for input "L2E" , no commentary.
Output line: 3.8

Input line: Return value of protein stability index for input "D7C" , no commentary.
Output line: 1.75

Input line: Return value of protein stability index for input "K23Q" , no commentary.
Output line: 1.4

Input line: Return value of protein stability index for input "I3K" , no commentary.
Output line: 3.17

Input line: Return value of protein stability index for input "I3L" , no commentary.
Output line: 2.76

Input line: Return value of protein stability index for input "E6I" , no commentary.
Output line: 1.98
